Quick reference for EC50 among some molecules
# Test system: HT-1080 cells
# PROCEDURE_DETAILS: HT-1080 cell viability assay (ferroptosis induced by RSL3, Cell Titer-Glo)
# Type: cell-based
# SETUP_CONDITIONS: Homo sapiens, HT-1080, 20 h, ferroptosis inducer RSL3, 20 hours, ferroptosis inhibitory activity, Table 2

Observe how each entry below is paired with its result.
| MOLECULE | ATTRIBUTE_MEASURED | TEST_VALUE |
| --- | --- | --- |
| Cc1cc(N2CCC(C(F)(F)F)CC2)ccc1NCC[C@H]1CC[C@H](N)CC1 [Compound 383] | EC50 | 0.1 to 100 nM |
| CC1CN(c2ccc(NC3CC(N)C3)c(F)c2)CC(C)O1 (stereo not drawn) [Compound 462] | EC50 | 1000 to 10000 nM |
| Cc1nc(N2C[C@@H](C)N(CC(F)(F)F)[C@@H](C)C2)ccc1NC1CCC(N)C1 (stereo partly drawn) [Compound 541] | EC50 | 0.1 to 100 nM |
| CC1(C)CCC(c2ccc(NC3CCC(N)CC3)cc2)CC1 (stereo not drawn) [Compound 74] | EC50 | 0.1 to 100 nM |
| NC1CCC(Nc2ccc(C3CCCC3)cc2)CC1 (single isomer, unassigned) [Compound 139A] | EC50 | 0.1 to 100 nM |

Asked: Item under review: Cc1nc(N2CC(C)OC(C)C2)ccc1NC1CCC(N)CC1 (stereo not drawn) [Compound 443] . Reported EC50?
Given back: 100 to 1000 nM

Asked: Item under review: Cc1nc(N2CC(C)OC(C)C2)ccc1NCC12CC3CC(C1)C(N)C(C3)C2 (stereo not drawn) [Compound 516A] . Reported EC50?
Given back: 0.1 to 100 nM

Asked: Item under review: CC(C)Oc1ccc(NC[C@H]2CC[C@H](N)CC2)cc1 [Compound 353] . Reported EC50?
Given back: 0.1 to 100 nM

Asked: Item under review: Cc1cc(N2CCC(C(F)(F)F)C2)ccc1NC[C@H]1CC[C@H](N)CC1 (stereo partly drawn) [Compound 419] . Reported EC50?
Given back: 0.1 to 100 nM

====

# System: HT-1080 cells
# PROCEDURE_DETAILS: HT-1080 cell viability assay (ferroptosis induced by RSL3, Cell Titer-Glo)
# Format: cell-based
# SETUP_CONDITIONS: Homo sapiens, HT-1080, 20 h, ferroptosis inducer RSL3, 20 hours, ferroptosis inhibitory activity, Table 2
Quick reference for EC50 among some molecules

Observe how each entry below is paired with its result.
| MOLECULE | ATTRIBUTE_MEASURED | TEST_VALUE |
| --- | --- | --- |
| CC(C)C1CCN(c2ncc(NC3CC4(CC(NCC(F)F)C4)C3)cn2)CC1 (stereo not shown) [Compound 413] | EC50 | 0.0001 to 0.1 µM |
| Cc1nc(N2CCC3(CCOCC3)C2)ccc1NC1CC2(CC(N)C2)C1 (stereo not shown) [Compound 507] | EC50 | 0.1 to 1 µM |
| CC(N)C1CCC(Nc2ccc(C3CCC(C)(C)CC3)cc2)CC1 (stereo not shown) [Compound 140] | EC50 | 0.0001 to 0.1 µM |
| N[C@H]1CCC[C@H]1Nc1ccc(N2CCC(C(F)(F)F)CC2)cc1 [Compound 454] | EC50 | 0.0001 to 0.1 µM |
| COC1(C(F)(F)F)CCN(c2ccc(NC[C@H]3CC[C@H](N)CC3)c(C)n2)CC1 [Compound 510] | EC50 | 0.0001 to 0.1 µM |

Asked: Item under review: Cc1cc(N2CCC(C(F)(F)F)CC2)c(F)cc1NC1CCC(C(N)=O)CC1 (stereo not shown) [Compound 435] . Reported EC50?
Given back: 0.0001 to 0.1 µM

Asked: Item under review: CC(C)(C)c1ccc(NCCOCCN)cc1 [Compound 224] . Reported EC50?
Given back: 0.1 to 1 µM
